PBM E-score listing for selected sequences.
study-target: Ybr033w (UniProt P38073)
Sequence: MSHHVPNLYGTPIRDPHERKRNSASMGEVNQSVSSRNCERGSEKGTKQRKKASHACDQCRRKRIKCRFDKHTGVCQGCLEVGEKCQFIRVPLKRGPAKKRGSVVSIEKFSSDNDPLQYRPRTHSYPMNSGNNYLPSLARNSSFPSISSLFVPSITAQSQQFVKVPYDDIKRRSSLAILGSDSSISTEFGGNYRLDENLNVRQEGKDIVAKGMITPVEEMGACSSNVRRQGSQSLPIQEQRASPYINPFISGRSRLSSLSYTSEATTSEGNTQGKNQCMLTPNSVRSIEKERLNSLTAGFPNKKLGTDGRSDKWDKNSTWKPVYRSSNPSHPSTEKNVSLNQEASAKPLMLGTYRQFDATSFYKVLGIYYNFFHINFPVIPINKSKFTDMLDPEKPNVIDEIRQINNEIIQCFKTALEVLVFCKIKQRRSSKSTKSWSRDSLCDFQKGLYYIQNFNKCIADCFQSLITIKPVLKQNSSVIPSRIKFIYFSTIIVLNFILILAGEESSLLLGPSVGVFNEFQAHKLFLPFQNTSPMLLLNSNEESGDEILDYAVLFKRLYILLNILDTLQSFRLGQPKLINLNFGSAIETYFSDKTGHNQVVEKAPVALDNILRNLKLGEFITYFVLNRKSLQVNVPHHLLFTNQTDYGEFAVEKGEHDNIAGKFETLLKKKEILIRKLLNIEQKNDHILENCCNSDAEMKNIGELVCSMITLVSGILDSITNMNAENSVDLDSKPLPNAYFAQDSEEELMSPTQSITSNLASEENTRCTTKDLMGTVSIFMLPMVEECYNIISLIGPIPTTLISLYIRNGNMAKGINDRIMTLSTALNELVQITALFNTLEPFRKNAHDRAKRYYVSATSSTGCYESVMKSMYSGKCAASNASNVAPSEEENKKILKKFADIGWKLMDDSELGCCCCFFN
method-notes: PBM E-score (8-mer binding enrichment) (E-score (-0.5 to 0.5)); higher = stronger / more preferred TF binding
protocol-conditions: protein concentration: 200 nM; construct: GST-full length
Over roughly 33,000 sequences, “E-score (-0.5 to 0.5)” has its median near -0.012; the highest 2% begin near 0.29. What follows is part of a selection rich in the highest values, with near analogues and random picks from the rest.
No unit in the answer, please; the number alone is enough.

Known PBM E-score results, listed for orientation:
| sequence-input | study-target | PBM E-score |
| --- | --- | --- |
| AGCTCTGA | Ybr033w (UniProt P38073) | -0.0863 |
| AGTGCTTA | Ybr033w (UniProt P38073) | -0.00926 |
| AGCTGGTA | Ybr033w (UniProt P38073) | -0.142 |
| AAATTAAA | Ybr033w (UniProt P38073) | 0.339 |
| GAAGATGC | Ybr033w (UniProt P38073) | -0.106 |

Bench note: what PBM E-score did ATGGCAAG show?
-0.0226

Check AATAACCC too.
0.203

Check AATATCGA too.
0.164

Check AAATTAAG too.
0.144

Check AAAGCTTG too.
0.147

Check ACATACAT too.
0.226

Check AAACTGCA too.
0.146

Check CACCTAGC too.
-0.236
